# Test system: CEM cells HIV-1 protection, formazan growth assay
# assay_notes: NCI AIDS Antiviral Assay;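 active = compounds giving half or more protection of infected cells from virus-caused growth loss, again on retest; inactive = the rest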
Your reply should match one of these outcome classes. t = active, f = inactive

input: Outcome? `O=C(O)/C=C/c1ccc(Oc2ccccc2C(=O)O)o1`
output: f

input: What was the test verdict on CC1(C)C2CCC13CS(=O)(=O)N(C(=O)[C@H]1CC=CCC1)C3C2 (stereo partly specified) ?
output: f

Continuing:
input: Field: outcome | Entry: Cc1ccc2c(c1)C(=O)C1(C2)Cc2c(C)cccc2C1=O (stereo unspecified)
output: f

input: Per the assay record, what outcome was assigned to Cc1ccc(NC(=O)C2C(=O)C(=O)N(c3ccc(C)cc3)C2=O)cc1 (stereo unspecified) ?
output: f

input: For this molecule, state the assay outcome: `O=c1cc2c(n[nH]1)CCCC2`
output: f

input: Any idea what this test logged for `COc1cc2c(cc1OC)-c1cc3cc(OC)c(OC)cc3n1CC2` ?
output: f

input: Please let me know the test result on file for COC(=O)C1CC2(C)C=CC1N(C(=O)OCc1ccccc1)C2 (stereo unspecified) .
output: f

input: Query: recorded result category for `COc1cc(OC)c(/C=C\c2nccc3ccccc23)c(OC)c1` in this test
output: f

input: For this molecule, state the assay outcome: `Cc1cc(C)nc(NS(=O)(=O)c2ccc(Nc3c4ccccc4nc4ccc(C(=O)Nc5ccc(S(N)(=O)=O)cc5)cc34)cc2)n1`
output: f

input: For `Cc1cc(S(=O)(=O)Nc2nc(N)nc3nc4ccccc4n23)c(S)cc1Cl` , what call appears in the results of this test?
output: t

input: For NC1=NCC(CN2CCOCC2)O1 (stereo unspecified) , which call appears in the assay record?
output: f

input: Please indicate how the test categorized `Oc1ccccc1/C=N/N1C(=S)N(c2ccccc2)C(=Nc2ccccc2)C1=Nc1ccccc1` .
output: f

* * *

# Tested on: CEM cells HIV-1 protection, formazan growth assay
# assay_notes: NCI AIDS Antiviral Assay
Activity calls are given as the source filed them.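 The calls were made as follows: active = compounds giving half or more protection of infected cells from virus-caused growth loss, again on retest; inactive = the rest.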
endpoint_name: outcome

# annotated cases, reported outcome shown
input: Any idea what outcome was measured for `Cc1ccc(-n2nc3c(c(C#N)c2=O)-c2ccccc2C3=O)cc1` ?
output: inactive

input: Item COc1cccc(C(C#N)NC23CC4CC(CC(C4)C2)C3)c1 (configuration not stated) has what recorded outcome?
output: inactive

input: Need outcome, item `COC(=O)Nc1cn2ccsc2n1`
output: inactive

input: Which outcome is reported for this compound? `CCNc1ccc2c(c1)C(=O)N(OS(C)(=O)=O)C2=O`
output: inactive

input: # get_value(readout='outcome', item= `CCCNC(=O)N(CCN(C)C)S(=O)(=O)c1ccc(Cl)cc1` )
output: inactive

input: Requested field: outcome. Item: NC(N)=NCCCC(NCc1c2ccccc2nc2ccccc12)C(=O)O (configuration not stated)
output: inactive

input: # lookup: outcome of CCOC(=O)/C=C/CC(C)n1cc(C)c(=O)[nH]c1=O (configuration not stated)
output: inactive

input: Can you look up the measured outcome of `O=C(O)C/C=C(\C(=O)O)N1C(=O)c2ccccc2C1=O` for me?
output: inactive

The record that follows has no outcome shown yet.
input: Item S=C1NC(c2ccccc2)=NC(Cc2ccccc2)(c2ccccc2)N1c1ccccc1 (configuration not stated) has what recorded outcome?
output: inactive

* * *

# Tested on: CEM cells HIV-1 protection, formazan growth assay
# assay_notes: NCI AIDS Antiviral Assay
# condition_notes: measured here: growth of uninfected CEM cells
pIC50: −log10 of the molar value.
This section presents compounds with their documented pIC50 values.

Guide cases for pIC50, answers given:
input: Lab note: need pIC50 for `C(=C\c1c2oc(-c3ccccc3)cc(-c3ccccc3)c-2c2ccccc12)/C=C1\c2ccccc2-c2c(-c3ccccc3)cc(-c3ccccc3)[o+]c21` on CEM cells HIV-1 protection, formazan growth assay, anyone have it?
output: < 5.17

input: Kindly state the measured pIC50 obtained for CC1=NN=C(N)NC1=CC(Sc1ccc(Cl)cc1)c1c(O)ccc2ccccc12 (configuration not stated) with CEM cells HIV-1 protection, formazan growth assay.
output: 4.95

input: API: value(readout= pIC50, system= CEM cells HIV-1 protection, formazan growth assay, query= `C=C1CCCCCCCCCCC12SCCCS2` )
output: < 3.70

input: Please state recorded pIC50 (tested on CEM cells HIV-1 protection, formazan growth assay) of CC1CN=C(N(C)C(=O)Nc2ccc(Cl)c(Cl)c2)S1 (configuration not stated)
output: 4.43

input: Give pIC50 (CEM cells HIV-1 protection, formazan growth assay) of the following compound: CCCC1C(C#N)(C#N)C(C#N)=C(N)C1(C)C(C)=O (configuration not stated)
output: < 3.70

input: Form field - read-out: pIC50; system: CEM cells HIV-1 protection, formazan growth assay; submitted item: `CCOC(=O)C(=Cc1ccc(Oc2ccccc2)cc1)C(=O)OCC`
output: < 4.95

input: Hi! What's the reported pIC50 for `Clc1cc2c(c(CSc3nc4ccccc4n4cccc34)c1)OCOC2` on CEM cells HIV-1 protection, formazan growth assay?
output: < 4.87

input: Param readout = pIC50; param system = CEM cells HIV-1 protection, formazan growth assay; param query = COC(=O)C1=C(C(=O)OC)C2C(C)=CC(C)=CN2C(C#N)=C(SC)S1 (configuration not stated) ; response: value
output: < 4.86

Others:
input: # get_value(readout= pIC50, system= CEM cells HIV-1 protection, formazan growth assay) for `O=[N+]([O-])c1ccc(N2CCOS(=O)OCC2)cc1`
output: < 3.70

input: // map CC12CCCCC1CC(=O)/C(=C\O)C2 (configuration not stated) to recorded pIC50 (system: CEM cells HIV-1 protection, formazan growth assay)
output: 4.11

input: Notebook: pull reported pIC50 for CEM cells HIV-1 protection, formazan growth assay, entry `Cc1ccc2nc(N/N=C/c3sccc3C)cc(C)c2c1`
output: 4.31

input: Form: Entry = `COc1cc([C@H]2Oc3c(OC)cc(/C=C/C(=O)O)cc3[C@@H]2C(=O)O)ccc1O` | System = CEM cells HIV-1 protection, formazan growth assay | pIC50 = ____
output: < 3.70

input: What pIC50 appears in the records for this compound with CEM cells HIV-1 protection, formazan growth assay? `COc1ccc2c(-c3ccc(O)cc3)c(Oc3ccc(Cl)cc3)c(=O)oc2c1`
output: 4.72

input: Look up pIC50 with CEM cells HIV-1 protection, formazan growth assay for this compound: `C=C(C)[C@@H]1CC[C@@H](C)[C@](O)([C@@H]2C[C@@H]([C@H](COC(=O)c3ccccc3)OC(=O)c3ccccc3)OC2=O)C1`
output: < 4.00

input: Entry CC1(C)OC([C@H](O)CO)C([C@H]2NCCS2)O1 (some centres not stated) , system CEM cells HIV-1 protection, formazan growth assay: what pIC50 was measured?
output: < 3.70

input: Find the measured pIC50: item CN(C)c1ccc(C=NCC2CCCN3CCCCC23)cc1 (configuration not stated) , target or system CEM cells HIV-1 protection, formazan growth assay.
output: < 4.00

input: State its pIC50 on CEM cells HIV-1 protection, formazan growth assay: O=C(N=S(NC(=O)c1ccccc1)C(Cl)(Cl)Cl)c1ccccc1 (configuration not stated)
output: 4.78

input: # get_value(readout= pIC50, system= CEM cells HIV-1 protection, formazan growth assay) for `CCCCCN1CCN(c2ncccn2)CC1`
output: < 3.70

input: Item: O=C1N(O)C2(C=CCCC2)/C(=N/O)C12CCCCC2 (configuration not stated) Test system: CEM cells HIV-1 protection, formazan growth assay Read-out: pIC50 Value: ?
output: < 4.15

input: Look up pIC50 with CEM cells HIV-1 protection, formazan growth assay for this compound: COC(=O)CC(C)(NS(=O)c1ccc(C)cc1)c1ccccc1 (configuration not stated)
output: 3.92

input: Record lookup: for CEM cells HIV-1 protection, formazan growth assay, what pIC50 belongs to `O=c1c(-c2ccccc2)c2oc(c1-c1ccccc1)CS(=O)(=O)CCC2` ?
output: 4.73

input: Given the entry `Clc1cccc(-c2ccc[nH]2)c1` , what pIC50 was observed with CEM cells HIV-1 protection, formazan growth assay?
output: < 3.70
